# credit: IntAct's records for PubMed 20696398

B1: Vacuolar protein sorting-associated protein VTA1 (Saccharomyces cerevisiae), Q06263 (parent)
chain: MASNAARVVATAKDFDKVGLGIIGYYLQLYAVELILSEEDRSQEMTALATELLDTIEAFKKEIGGESEAEDSDKSLHVMNTLIHDQEKAKIYMLNFTMSLYNEKLKQLKDGPWDVMLKRSLWCCIDLFSCILHLWKENISETSTNSLQKRIKYCKIYLSKLAKGEIGSSDEKTLDYADFADDSEEIKDEDVDHQTSDLENNNNDKVEGLAPKDQTTSYEPVDEVPEFIDDADSVNEEEQTVDKNEDAITKDEQQVVKKEVDLTRPSAPSEPAAAEHKSYTKDELTKIMDRASKIEQIQKLAKYAISALNYEDLPTAKDELTKALDLLNSI
partner: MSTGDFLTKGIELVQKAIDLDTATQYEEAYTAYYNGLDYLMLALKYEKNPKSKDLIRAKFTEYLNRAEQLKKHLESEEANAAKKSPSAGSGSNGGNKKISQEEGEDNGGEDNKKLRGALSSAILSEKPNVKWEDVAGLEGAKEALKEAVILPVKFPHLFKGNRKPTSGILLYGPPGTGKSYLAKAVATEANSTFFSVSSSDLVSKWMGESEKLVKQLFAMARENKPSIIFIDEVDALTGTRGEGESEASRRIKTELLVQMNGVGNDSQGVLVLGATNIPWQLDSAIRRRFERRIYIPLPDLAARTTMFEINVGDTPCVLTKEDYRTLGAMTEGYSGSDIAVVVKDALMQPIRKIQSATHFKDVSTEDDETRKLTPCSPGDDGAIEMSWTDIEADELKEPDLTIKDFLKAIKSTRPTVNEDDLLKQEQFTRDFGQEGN

Variants of: B1
Details: with vps4_yeast VPS4, P52917
measure-name: effect of a mutation on the interaction

Known results for variants:
mutation-string | effect of a mutation on the interaction
T315R | decreasing interaction
D312A | decreasing interaction
S306R | decreasing interaction
A307D | disrupting interaction

Q. Read off the recorded effect of a mutation on the interaction for `Y303A`
A. disrupting interaction
